# System: Mus musculus
# protocol details: Neurobehavioral effect on Swiss Webster mouse assessed as hot plate latency time at 10 mg/kg, ip (reference value: 8.32 +/- 2.20 %) by mouse tetrad assay
# Type: functional
Friendly reminder: MPE below 40% is Condition met, at or above is Condition not met.

Q: Is MPE strictly under 40% for the entry CCCCCc1cc(O)c2c(c1)OC(C)(C)[C@@H]1CC[C@@]3(C)O[C@H]3[C@@H]21 ?
A: Condition met

Q: Please do the same for CCCCCc1cc(O)c2c(c1)OC(C)(C)[C@@H]1CC=C(C)[C@@H](O)[C@@H]21 as well.
A: Condition met

Q: Try this compound next: CCCCCc1cc(O)c2c(c1)OC(C)(C)[C@@H]1C[C@@H](O)C(C)=C[C@@H]21
A: Condition met

Q: Now try CCCCCc1cc(O)c2c(c1)OC(C)(C)[C@@H]1CCC(C)=C[C@@H]21 [DRONABINOL] .
A: Condition met

Q: # iterate: CCCCCc1cc(O)c2c(c1)OC(C)(C)[C@@H]1CC=C(C)[C@H](O)[C@@H]21
A: Condition not met
